Experiment: Cmax in human
Type: ADME, organism-based
Stated conditions: in vivo
Measurement type: Cmax (nM)

molecule="CC(C)C[C@H]1C(=O)N2CCC[C@H]2[C@]2(O)O[C@](NC(=O)[C@@H]3C=C4c5cccc6[nH]c(Br)c(c56)C[C@H]4N(C)C3)(C(C)C)C(=O)N12 [BROMOCRIPTINE]" measurement_type=Cmax unit_info=nM observed_measurement=0.711

----------
Experiment: Clearance in human
Format: ADME, organism-based
Stated conditions: in vivo
Measurement type: clearance (mL/min)

smiles_repr=Nc1ccn([C@@H]2O[C@H](CO)[C@@H](O)[C@@H]2O)c(=O)n1 measurement_type=clearance observed_measurement=0.233
smiles_repr=CCCCC[C@H](O)/C=C/[C@H]1[C@H](O)CC(=O)[C@@H]1CCCCCCC(=O)O measurement_type=clearance observed_measurement=115000
